Collected inhibition values appear next to each entry.
- TARGET: FAD-linked sulfhydryl oxidase ALR (Homo sapiens)
- PROTOCOL_SUMMARY: ALR-catalysed DTT oxidation blockers – biochemical, H2O2 detection, HRP-luminol luminescence, single point, primary screen (AID 485317)
- RUN_CONDITIONS: purified ALR, hits give high values, concentration not given here
Screen size: about 290,000 compounds; about 11,000 (3.8%) were called active. What follows is part of a selection rich in actives, with near analogues and random picks from the rest.
ASSAY_METRIC: inhibition (%)

MOLECULE: Cc1ccnc(SCC(=O)Nc2cccc(S(=O)(=O)N3CCOCC3)c2)n1
REPORTED_VALUE: -3.28
--
MOLECULE: CCOC(=O)COc1ccc([N+](=O)[O-])cc1
REPORTED_VALUE: 3.19
--
MOLECULE: COc1ccc(C(=O)COC(=O)c2c(C)noc2C)cc1Cl
REPORTED_VALUE: 1.08
--
MOLECULE: CCc1c(O)nc(SCC(=O)Nc2ccccc2)n(C(C)CC)c1=O (stereo not drawn)
REPORTED_VALUE: 98.8
--
MOLECULE: Cc1cc(C)cc(OCC(=O)O/N=C(\N)Cc2ccc([N+](=O)[O-])cc2)c1
REPORTED_VALUE: 98.4
--
MOLECULE: CCn1c(CNC(=O)c2ccc(OC)c(OC)c2)nnc1SCC(=O)Nc1ccccc1
REPORTED_VALUE: -2.46
--
MOLECULE: O=[N+]([O-])c1cccc(S(=O)(=O)NCc2ccccn2)c1
REPORTED_VALUE: -12.1
--
MOLECULE: COCCCNC(=O)CC1C[C@H](C(=O)N2CCCCC2)[C@@]2(CCc3ccccc3)c3[nH]c4ccccc4c3CCN2C1=O (stereo partly drawn)
REPORTED_VALUE: -3.65
--
MOLECULE: CN1CCN(C2Cc3ccc(Cl)cc3Sc3ccc(F)cc32)CC1 (stereo not drawn)
REPORTED_VALUE: 4.93
--
MOLECULE: CCCc1nnc(SCC(=O)Nc2ccc(C(=O)OCC)cc2)o1
REPORTED_VALUE: 99.2
--
MOLECULE: COc1ccc2nc3n(c(=O)c2c1)-c1cc(C)ccc1C(=O)NC3Cc1ccc(O)cc1 (stereo not drawn)
REPORTED_VALUE: -1.57
--
MOLECULE: COc1ccc(Nc2ccc([N+](=O)[O-])cn2)cn1
REPORTED_VALUE: -22.9
--
MOLECULE: O=C1CCC/C=C/C[C@@H](CC(=O)N(CCO)Cc2ccccc2)C(=O)NC[C@H](c2ccccc2)O1
REPORTED_VALUE: 0.972
--
MOLECULE: COc1ccc(Nc2cc(Cl)ccc2C(=O)O)cn1
REPORTED_VALUE: 98.7
--
MOLECULE: O=C1c2ccccc2NC(c2ccc(-c3cccc(Cl)c3)o2)N1O (stereo not drawn)
REPORTED_VALUE: 95.9
--
MOLECULE: CCCCCNC(=O)C1c2ccccc2Oc2ccccc21
REPORTED_VALUE: -7.1
--
MOLECULE: COc1ccc(C(=O)COC(=O)C(O)c2ccccc2)c(OC)c1 (stereo not drawn)
REPORTED_VALUE: -0.55
--
MOLECULE: CCOC(=O)NN1C(=O)c2ccccc2NC1c1cccc(O)c1 (stereo not drawn)
REPORTED_VALUE: -18.3
--
MOLECULE: Cc1ccc(NC(=O)CSc2nnc(COc3ccccc3C)o2)cc1
REPORTED_VALUE: -0.274
--
MOLECULE: CCC(C)(C)NC(=O)C1c2ccccc2Oc2ccccc21
REPORTED_VALUE: -6.09
--
MOLECULE: Cc1cc(C)cc(OCc2nnc(SCC(=O)Nc3ccccc3)o2)c1
REPORTED_VALUE: 5.24
--
MOLECULE: CN(Cc1c(F)cccc1Cl)C(=O)CNC(=O)c1ccc2c(c1)OCO2
REPORTED_VALUE: 1.35
--
MOLECULE: O=c1cc(CO)oc(C(Nc2cccc([N+](=O)[O-])c2)c2ccccn2)c1O (stereo not drawn)
REPORTED_VALUE: 94.5

----------
- TARGET: FAD-linked sulfhydryl oxidase ALR (Homo sapiens) (UniProt P55789)
- Sequence (P55789 whole entry, looked up): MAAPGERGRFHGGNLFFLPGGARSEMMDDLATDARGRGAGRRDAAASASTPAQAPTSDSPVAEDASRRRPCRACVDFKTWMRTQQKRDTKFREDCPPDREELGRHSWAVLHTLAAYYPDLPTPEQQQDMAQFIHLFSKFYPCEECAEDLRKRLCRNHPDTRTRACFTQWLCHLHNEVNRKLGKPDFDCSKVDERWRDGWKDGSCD
- PROTOCOL_SUMMARY: ALR-catalysed DTT oxidation blockers – biochemical, H2O2 detection, HRP-luminol luminescence, single point, primary screen (AID 485317)
- RUN_CONDITIONS: purified ALR, hits give high values, concentration not given here
The campaign covered roughly 290,000 compounds. About 11,000 (3.8%) were called active. This is one part of a sample in which actives are shown more often than they occur.

CHEMICAL_STRING: COc1ccccc1NC(=O)CSc1nc2sc3c(c2c(=O)n1-c1ccccc1)CCN(C)C3
TARGET: FAD-linked sulfhydryl oxidase ALR (Homo sapiens) (UniProt P55789)
UNIT_TEXT: %
inhibition: 99

CHEMICAL_STRING: C=CCn1c(SCC(=O)Nc2ccc(NC(C)=O)cc2)nc2sc(C)c(C)c2c1=O
TARGET: FAD-linked sulfhydryl oxidase ALR (Homo sapiens) (UniProt P55789)
UNIT_TEXT: %
inhibition: -2.72

CHEMICAL_STRING: COc1ccccc1-n1c(SCC(=O)Nc2cccc(C(=O)O)c2)nnc1-c1ccccc1O
TARGET: FAD-linked sulfhydryl oxidase ALR (Homo sapiens) (UniProt P55789)
UNIT_TEXT: %
inhibition: 3.17

CHEMICAL_STRING: CCOc1ccc(NC(=O)CSc2nc3c(c(=O)n2-c2ccccc2OC)SCC3)cc1
TARGET: FAD-linked sulfhydryl oxidase ALR (Homo sapiens) (UniProt P55789)
UNIT_TEXT: %
inhibition: 93.4

CHEMICAL_STRING: CCc1nnc(NC(=O)CSc2nc3c(c(=O)n2-c2ccccc2OC)SCC3)s1
TARGET: FAD-linked sulfhydryl oxidase ALR (Homo sapiens) (UniProt P55789)
UNIT_TEXT: %
inhibition: 1.36

CHEMICAL_STRING: C=CCn1c(SCC(=O)NCCCO)nc2sc3c(c2c1=O)CCC3
TARGET: FAD-linked sulfhydryl oxidase ALR (Homo sapiens) (UniProt P55789)
UNIT_TEXT: %
inhibition: -4.11

CHEMICAL_STRING: CCOc1ccc(-n2c(SCC(=O)Nc3ccc(OC)cc3)nc3sc4c(c3c2=O)CCN(C)C4)cc1
TARGET: FAD-linked sulfhydryl oxidase ALR (Homo sapiens) (UniProt P55789)
UNIT_TEXT: %
inhibition: 98.6

CHEMICAL_STRING: Fc1ccccc1-c1cc2cc3c(cc2cn1)OCO3
TARGET: FAD-linked sulfhydryl oxidase ALR (Homo sapiens) (UniProt P55789)
UNIT_TEXT: %
inhibition: 0.64

CHEMICAL_STRING: CCn1c(SCC(=O)Nc2ccc(Br)cc2)nc2sc3c(c2c1=O)CCN(C)C3
TARGET: FAD-linked sulfhydryl oxidase ALR (Homo sapiens) (UniProt P55789)
UNIT_TEXT: %
inhibition: 99

CHEMICAL_STRING: COc1ccccc1NC(=O)CSc1nnc(Cn2nnc(-c3ccccc3)n2)n1-c1ccccc1
TARGET: FAD-linked sulfhydryl oxidase ALR (Homo sapiens) (UniProt P55789)
UNIT_TEXT: %
inhibition: -1.41

----------
- TARGET: FAD-linked sulfhydryl oxidase ALR (Homo sapiens) (UniProt P55789)
- PROTOCOL_SUMMARY: ALR-catalysed DTT oxidation blockers – biochemical, H2O2 detection, HRP-luminol luminescence, single point, primary screen (AID 485317)
- RUN_CONDITIONS: purified ALR, concentration not given here
In all, about 290,000 compounds went through this assay and about 11,000 (3.8%) were called active.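 How the source made its calls: active means mean replicate inhibition above about 79%, with every replicate also reaching it (limit read from the data); inconclusive means only one of the two criteria met; inactive means mean below limit and not every replicate reaching it.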 The entries come from a sample that favours actives as a whole.
Possible outcomes: active, inactive

MOLECULE: CCCC(=O)NC(C)C(c1cccs1)N1CCN(c2ccccc2)CC1 (stereo not given)
CAT: active
//
MOLECULE: CC(NC(=O)Nc1ccccc1)C(c1cccs1)N1CCN(c2ccccc2)CC1 (stereo not given)
CAT: inactive
//
MOLECULE: CCC(CO)Oc1cc(NCc2ccccc2)c2ncn(C3CCCC3)c2c1 (stereo not given)
CAT: inactive
//
MOLECULE: CCCCOc1ccc(NC(=O)CSCC(=O)OCC)cc1
CAT: active
//
MOLECULE: COc1cc(OC)cc(C(=O)NCC(=O)OCC(=O)NC(C)CCc2ccccc2)c1 (stereo not given)
CAT: inactive
//
MOLECULE: Cc1cc(C)c(-c2csc(NC(=O)CCCc3nc4ccccc4c(=O)[nH]3)n2)c(C)c1
CAT: inactive
//
MOLECULE: CCN(CC)CCCNC(=O)c1ccc2c(=O)n(Cc3ccc4c(c3)OCO4)c(=S)[nH]c2c1
CAT: active
//
MOLECULE: CC(NC(=O)C(C)(C)C)C(c1cccs1)N1CCN(Cc2ccccc2)CC1 (stereo not given)
CAT: inactive
//
MOLECULE: O=C1CSc2ccc(C(=O)NCc3ccccn3)cc2N1
CAT: inactive
//
MOLECULE: COc1cccc(NC(=O)CN(C)C(=O)CSC(=S)N2CCCC2)c1
CAT: inactive
